Target: anti-CLDN-5 ECR mAb clone 2B12
Sequence (chain, as listed by the source, chain 1 of 2): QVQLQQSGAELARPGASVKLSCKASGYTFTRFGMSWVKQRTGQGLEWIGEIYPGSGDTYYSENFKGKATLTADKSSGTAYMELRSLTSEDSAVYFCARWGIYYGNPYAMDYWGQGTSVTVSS
Sequence (chain, as listed by the source, chain 2 of 2): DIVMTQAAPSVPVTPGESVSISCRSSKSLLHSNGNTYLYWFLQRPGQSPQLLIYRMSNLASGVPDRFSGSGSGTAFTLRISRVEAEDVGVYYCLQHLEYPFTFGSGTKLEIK
Experiment: proteoliposome ELISA
Details: chain shown with the change;; parent: est. 1.0; read off a plot
I'd be grateful if you could share measured ratio to parent for these entries.
Numbers only.

Known ratio to parent results, listed for orientation:
Binder	ratio to parent
AGIA-tagged human CLDN-5, cell-free synthesized proteoliposome, O00501 Y148A (protein) MGSAALEILGLVLCLVGWGGLILACGLPMWQVTAFLDHNIVTAQTTWKGLWMSCVVQSTGHMQCKVYDSVLALSTEVQAARALTVSAVLLAFVALFVTLAGAQCTTCVAPGPAKARVALTGGVLYLFCGLLALVPLCWFANIVVREFADPSVPVSQKYELGAALYIGWAATALLMVGGCLLCCGAWVCTGRPDLSFPVKYSAPRRPTATGDYDKKNYV	0.75
AGIA-tagged human CLDN-5, cell-free synthesized proteoliposome, O00501 D149A (protein) MGSAALEILGLVLCLVGWGGLILACGLPMWQVTAFLDHNIVTAQTTWKGLWMSCVVQSTGHMQCKVYDSVLALSTEVQAARALTVSAVLLAFVALFVTLAGAQCTTCVAPGPAKARVALTGGVLYLFCGLLALVPLCWFANIVVREFYAPSVPVSQKYELGAALYIGWAATALLMVGGCLLCCGAWVCTGRPDLSFPVKYSAPRRPTATGDYDKKNYV	0.03

Please report the recorded ratio to parent for AGIA-tagged human CLDN-5, cell-free synthesized proteoliposome, O00501 P150A (protein) MGSAALEILGLVLCLVGWGGLILACGLPMWQVTAFLDHNIVTAQTTWKGLWMSCVVQSTGHMQCKVYDSVLALSTEVQAARALTVSAVLLAFVALFVTLAGAQCTTCVAPGPAKARVALTGGVLYLFCGLLALVPLCWFANIVVREFYDASVPVSQKYELGAALYIGWAATALLMVGGCLLCCGAWVCTGRPDLSFPVKYSAPRRPTATGDYDKKNYV . 0.13
